# credit: patent US20050079574A1

# testSystem: T1, Protein A (UniProt P38507 37-477)
# T1 construct: also called Protein A (Sigma)
# measurementDescription: BiaCore 3000, Protein A on CM5 chip, steady state fit
Hi! Just check whether Kd is below 2 µM. Below gives criterion met, equal or above gives criterion not met.

The following binders have reported results that may help.
- binder: "RIG scaffold (VHH) (VHH, also called RIG-Parent Scaffold; RIG VHH domain) VHH: DVQLQESGGGLVQAGGSLRLSCAASGRTGSTYDMGWFRQAPGKERESVAAINWDSARTYYASSVRGRFTISRDNAKKTVYLQMNSLKPEDTAVYTCGAGRIGRSVFNLRRESWVTWWGQGTQVTVSSAGGMDYKDDDDK"
  className: "criterion met"
- binder: "LLR scaffold (VHH) (VHH) VHH: DVQLQESGGGLVQAGGSLRLSCAASGRTGSTYDMGWFRQAPGKERESVAAINWDSARTYYASSVRGRFTISRDNAKKTVYLQMNSLKPEDTAVYTCGAGLLRRGVNATPNWFGLVGWGQGTQVTVSSAGGMDYKDDDDK"
  className: "criterion not met"
- binder: "RLV scaffold (VHH) (VHH) VHH: DVQLQESGGGLVQAGGSLRLSCAASGRTGSTYDMGWFRQAPGKERESVAAINWDSARTYYASSVRGRFTISRDNAKKTVYLQMNSLKPEDTAVYTCGAGRLVNGLSGLVSWEMPLAWGQGTQVTVSSAGGMDYKDDDDK"
  className: "criterion met"
- binder: "llama anti-HCG monobody variable heavy chain (VHH), wild type (VHH, also called wild type anti-HCG scaffold; llama a-HCG) VHH: DVQLQESGGGLVQAGGSLRLSCAASGRTGSTYDMGWFRQAPGKERESVAAINWDSARTYYASSVRGRFTISRDNAKKTVYLQMNSLKPEDTAVYTCGAGEGGTWDSWGQGTQVTVSSAGGMDYKDDDDK"
  className: "criterion met"

Okay, next one:
Req: In plain terms, does VLK scaffold (VHH) (VHH) VHH: DVQLQESGGGLVQAGGSLRLSCAASGRTGSTYDMGWFRQAPGKERESVAAINWDSARTYYASSVRGRFTISRDNAKKTVYLQMNSLKPEDTAVYTCGAGVLKRRGSSVAIFTRVQSWGQGTQVTVSSAGGMDYKDDDDK come in under 2 µM for Kd?
Resp: criterion met
